Where do the numbers come from? From PubChem BioAssay (NCI).

Tested on: RXF 393 renal
Experiment: NCI-60 one-dose screen, 48 h (100 = growth as untreated, 0 = no growth, -100 = all killed)
Conditions: 10 µM unless noted
Protocol: Cells are grown in 96 well plates and exposed to the test compound for 48 hours. Compounds are tested at a single concentration, which is 10^-5 M for most compounds. The reported endpoint is percent growth (GI% or GIPRCNT), where numbers from 0 - 100% represent growth inhibition, and numbers from -100% - 0 represent cell death. For example, a value of 40 represents 60% growth inhibition. A value of 0 means no net growth occurred over the course of the experiment. […]
Compounds without any hit were thinned out: in the full panel of roughly 83,000, 20% have a hit.
For each record, write down the corresponding growth.
Answers are plain numbers, in %.

CCS/C(Nc1ccccc1)=C(\C#N)C(=O)Nc1ccc(OC)cc1 :: 39.5
CCOC(=O)c1c(C)nc2c(c1N)CC(=O)N2Cc1ccc(OC)cc1 :: 37.7
COc1ccc(-c2ccc(-c3ccc(C(=N)N)nc3)s2)cc1Cl :: 56.8
N#Cc1c(Nc2ccc(N3CCOCC3)cc2)nc(SCC(=O)c2ccc(Br)cc2)nc1-c1ccccc1 :: 126

Hey, quick one: what's growth for each of these?
1. COc1ccc(C(=O)Cn2c(C(=O)c3ccc(OC)cc3)nc3ccccc32)cc1
2. CCN1CCN(CCNc2nccc(-c3c(-c4ccc(F)c(OC)c4)nc4sccn34)n2)S1(=O)=O
3. C=C(C)[C@@H]1CCC[C@]2(C(=O)O)CC[C@]3(C)[C@@H](CC[C@@H]4[C@@]5(C)C/C(=C/c6ccncc6)C(=O)C(C)(C)[C@@H]5CC[C@]43C)[C@@H]12
4. Cc1c2cccnc2c(C)c2c1c1cc(CO)ccc1n2C
5. CS(=O)(=O)c1ccc(NC(=O)c2ccccc2)nc1

A)
1: 20.4; 2: 45; 3: 34.4; 4: 30.2; 5: 106

* * *

test system: SK-OV-3 ovarian; assay: NCI-60 one-dose screen, 48 h (100 = growth as untreated, 0 = no growth, -100 = all killed); conditions: 10 µM unless noted
The panel holds about 83,000 compounds, 20% with a hit somewhere; the sample as a whole holds those more often.
Parameter Measured: growth (%)
Give bare numbers, in %.

Worked examples, 4 compounds total:
O=C(CI)NC(=O)NC(=O)NCc1ccccc1 :: 104
Cn1cc(-c2csc(-c3c[nH]c4ccc(F)cc34)n2)c2ccnc(Cl)c21 :: 74.3
CCN(CC)CCN1C(=O)c2c(c(C)c3c(oc4ccc(O)cc43)c2C)C1=O :: 101
CN1CCN(CCOc2ccc(-c3cnc4c(-c5ccc(F)cc5)cnn4c3)cc2)CC1 :: 93.1

Now turn to the next compound.
Q) What does the data say about its growth? Entry: COc1ccc(-c2n[nH]c(=O)c3nc(NC(=S)Nc4ccc(Oc5ccccc5)cc4)sc23)cc1
A) 94.9

* * *

tested on: NCI-H23 lung; assay: NCI-60 one-dose screen, 48 h (100 = growth as untreated, 0 = no growth, -100 = all killed); conditions: 10 µM unless noted
Compounds without any hit were thinned out: in the full panel of roughly 83,000, 20% have a hit.
Parameter Measured: growth (%)
One number for each entry, in %.

COc1ccc(N2CCC(=S)NC2=S)cc1 :: 99.2

Items follow; give growth for each.
1. COc1ccc(CNc2c3ccccc3nc3ccccc23)c(OC)c1
2. O=C(O)/C=C/C(=O)Nc1cccc(Cn2nnc3cc(Cl)c(Cl)cc32)c1
3. COc1cc(/C=C/C(=O)/C=C(O)/C=C/c2ccc(OC(=O)C34CC5CC(CC(C5)C3)C4)c(OC)c2)ccc1OC(=O)C12CC3CC(CC(C3)C1)C2
4. COc1cc(OC)c2sc(-c3ccc(-n4cncc4-c4cc(OC)c(OC)c(OC)c4)cc3)nc2c1

A)
1: 34.9; 2: 97.3; 3: 103; 4: 54.5

* * *

Provide the reported growth of each item.
system: ACHN renal; test: NCI-60 one-dose screen, 48 h (100 = growth as untreated, 0 = no growth, -100 = all killed); details: 10 µM unless noted
Compounds without any hit were thinned out: in the full panel of roughly 83,000, 20% have a hit. Calls of active or inactive are those of the source. How the source made its calls: active means growth percent below 10; inactive means the rest.

Example cases with answers are listed next.
CN(C)c1ccc(-c2ccc3c(c2)c(-c2ccccc2)nc(=O)n3C)cn1 :: 49.9% (inactive)
CCOC(=O)c1cc(C(=O)c2cc(OC)c(OC)c(OC)c2)n2ccccc12 :: 58.4% (inactive)
O=C(Cc1ccccc1)Nc1cccc(N=Cc2ccccc2O)c1 :: 110% (inactive)
COc1cccc(CNc2c3ccccc3nc3ccccc23)c1 :: 19.1% (inactive)

List growth for every entry below, keeping the order given.
1. Cc1ncc(C(=O)Nc2ccc(CN3CCN(C)CC3)c(C(F)(F)F)c2)cc1C#Cc1cnc(N)c2ncccc12
2. O=c1c2c3c(sc2n2c(-c4cc(-c5ccccc5)no4)nnc2n1Cc1ccccc1)CCCC3
3. COc1ccc(-c2cc(-c3ccccc3)nc(N3CCN(CCNc4ccnc5cc(Cl)ccc45)CC3)n2)cc1
4. Cc1ccc(Cl)cc1NC(=O)c1sc2nc3c(cc2c1N)C(=O)CCC3
5. CNC(C)[C@H]1CCC2C3CC=C4C(=O)[C@@H](NC(=O)C=C(C)C)CC[C@]4(C)C3CC[C@@]21C (stereo not given in full)
6. C=C(c1ccc(OC)c(/C=C/C(=O)c2ccc3c(c2)OCO3)c1)c1cc(OC)c(OC)c(OC)c1
7. CCN1C(=O)N(CC)C2C1N=C(SCc1ccc(Cl)cc1)N2/N=C/C=C/c1ccccc1OC (stereo not given)

A)
1: 0.608% (active); 2: 95.4% (inactive); 3: 66.3% (inactive); 4: 55.9% (inactive); 5: 26% (inactive); 6: -26.5% (active); 7: 61.5% (inactive)

* * *

system: EKVX NSCLC; assay: NCI-60 one-dose screen, 48 h; settings: 10 µM unless noted
Compounds without any hit were thinned out: in the full panel of roughly 83,000, 20% have a hit. Active and inactive are the calls of the source. Rule for the calls: active = growth percent below 10; inactive = the rest.
A correct response names exactly one class from active, inactive

A selection of reference data follows.
CN(CCCNC(=O)Cc1ccc2ccc3cccc4ccc1c2c34)CCCNc1cc(-c2ccc3ccccc3c2)nc2ccccc12 :: active
CCN(CC)CCN1C(=O)c2c(c(C)c3c(oc4ccc(O)cc43)c2C)C1=O :: inactive
CCN1CCN(C(=O)[C@]23CC[C@@H](C)[C@H](C)[C@@H]2C2=CC[C@@H]4[C@@]5(C)C/C(=C/c6cccnc6)C(=O)C(C)(C)[C@@H]5CC[C@@]4(C)[C@]2(C)CC3)CC1 :: inactive
CNC(C)[C@H]1CCC2C3CC=C4C(=O)[C@@H](NC(=O)C=C(C)C)CC[C@]4(C)C3CC[C@@]21C (some centres not stated) :: inactive
COc1ccc(NC(=O)Nc2ccc(OCCCCCC(=O)NO)cc2)cc1 :: inactive

Q) What was the test verdict on CCN1C(=O)N(CC)C2C1NC(=S)N2/N=C/c1ccc(OC)cc1 (configuration not stated) ?
A) inactive

Q) Now try COc1cc2c(cc1OCCCCN1CCN(C(=S)SCCC(C#N)(c3ccccc3)c3ccccc3)CC1)N=C[C@@H]1CCCN1C2=O .
A) active

Q) Field entry: Nc1nc(N)c2c(n1)NC(c1cccc(Nc3ccnc4cc(C(F)(F)F)ccc34)c1)CC(c1ccc(Br)cc1)=N2 (configuration not stated)
A) inactive

Q) Another compound to check: C=C1C(=O)O[C@H]2[C@H]1CC/C(Cn1cc(CCC)nn1)=C\CC[C@@]1(C)O[C@@H]21
A) inactive

Q) Do the same for COc1ccc(C2CC(c3cc(OC)c(OC)c(OC)c3)=NO2)cc1OCCCCOc1cc2c(cc1OC)C(=O)N1CCC[C@H]1C=N2 (some centres not stated) please
A) inactive

Q) Okay, and CN1CCN(C(=O)[C@@]2(C)CC[C@]3(C)CC[C@]4(C)C(=CC[C@@H]5[C@@]6(C)CCC(=O)NC(C)(C)[C@@H]6CC[C@]54C)[C@@H]3C2)CC1 ?
A) inactive

Q) # repeat for CC1(C)OB(O)c2cc(-c3nc4ccc5[nH]ncc5c4c4c3CCCC4)ccc21
A) inactive

Q) Continue with O=S(=O)(Nc1cc(Sc2cccc3cccnc23)c(O)c2ccccc12)c1ccccc1
A) inactive

Q) Ok, now CSc1nn2c(-c3ccc4ccccc4c3)ccnc2c1C#N
A) inactive

Q) Continue with COc1cc(OC)c2sc(-c3ccc(-n4cncc4-c4cc(OC)c(OC)c(OC)c4)cc3)nc2c1
A) inactive

Q) Entry Cc1ccc(/C=C/C(=O)c2ccc(-n3cc(CN4CCN(c5cc6c(cc5F)c(=O)c(C(=O)O)cn6C5CC5)CC4)nn3)cc2)cc1 please
A) inactive

Q) Then this compound: CCCCNC(=O)Oc1ccc(/C(=C(/C)Cc2ccc(OC)cc2)c2ccc(OCCN3CCCCC3)cc2)cc1
A) inactive

* * *

test system: MALME-3M melanoma; experiment: NCI-60 one-dose screen, 48 h (100 = growth as untreated, 0 = no growth, -100 = all killed); settings: 10 µM unless noted
This is part of a sample that, as a whole, favours compounds with a hit. Of some 83,000 tested, about 20% had one in any assay. Activity calls are given as the source filed them. The calls were made as follows: active = growth percent below 10; inactive = the rest.
Record form. Attribute: growth. Fill in for each entry.

// worked examples, growth included
Cc1ccccc1Nc1cc(O)c2c(=O)cc(-c3ccccc3)oc2c1 :: 47.9% (inactive)
C#CCn1cnc2cnc(Nc3cccc(NC(=O)C=C)c3)nc21 :: 76.7% [6.25 µM] (inactive)
CC1(C)CC[C@]2(CO)CC[C@]3(C)[C@H](CC[C@@H]4[C@@]5(C)CCCNC(C)(C)[C@@H]5CC[C@]43C)[C@H]2[C@H]1O :: 78.5% (inactive)

Consider the following items and state reported growth for each.
1. Cc1ccc2c(=O)cc(C(=O)Nc3sc4c(c3C(=O)NCc3cccnc3)CCCC4)oc2c1C
2. CCO/C=N/C1=C(C#N)C(c2ccc(F)cc2)c2sc3c(F)cccc3c2O1 (centres undefined)
3. Cc1cccc(-c2nc(Nc3ccc4ncsc4c3)c3ccccc3n2)n1

A)
1. 99.9% (inactive)
2. 57.6% (inactive)
3. 102% (inactive)

Batch request: growth for each of the following compounds.
1. Cc1ccc(-c2csc(NC(=O)c3ccccc3CN3C(=O)c4ccccc4C3=O)n2)cc1
2. COc1ccc(-c2n[nH]c(=O)c3nc(NC(=S)Nc4ccc(Oc5ccccc5)cc4)sc23)cc1
3. Cc1nc2c(c(=O)[nH]1)C(c1ccccc1)c1ccc3ccccc3c1O2 (centres undefined)
4. CCN(CC)c1ccc(CNc2cc(C)nc3ccccc23)cc1
5. Cc1ccc2nc(NC(=O)CSc3nc(-c4ccccc4)c(C#N)c4nnnn34)sc2c1
6. NS(=O)(=O)c1ccc(-c2cc(-c3nnc(SCC(=O)Nc4ccc(C(=O)/C=C/c5ccc(Cl)cc5)cc4)n3-c3ccccc3)c3ccccc3n2)cc1
7. CN(C)CCCC1(c2ccc(F)cc2)OCc2cc(-c3cc4ccccc4s3)ccc21 (centres undefined)
8. Cc1c2ccncc2c(C)c2c1c1cc(CO)ccc1n2C

A)
1: 93.7% (inactive); 2: 110% (inactive); 3: 60.9% (inactive); 4: 69.8% (inactive); 5: 109% (inactive); 6: 101% (inactive); 7: -77.4% (active); 8: -1.68% (active)

For each of the items listed, what is its growth?
1. CCCCCCCCCCCCCOC(=O)c1c(C)[nH]c(/C=C2\N=C(c3ccc[nH]3)C=C2OC)c1C
2. C[C@H](C(=O)N(CCc1ccc(Cl)c(Cl)c1)Cc1cncs1)[C@@H]1CC[C@H](C[C@H](C)n2cc(CN3CCC(c4ccc(Cl)cc4)CC3)nn2)O1

A)
1. 41.8% (inactive)
2. 101% (inactive)
